ASSAY_SYSTEM: CDK2/Cyclin E1 (Homo sapiens, UniProt P24941)
TEST: CDK2/Cyclin E1 Biochemical Assay (TR-FRET), 0.060 mM ATP
MEASUREMENT_PARAMETERS: 0.15 μM Rb (Ser780)-biotin substrate, pH7.0, 60 min preincubation, 120 min reaction, room temperature

{"columns": ["COMPOUND", "RELATION", "IC50, nM"],
 "data": [
  ["C[C@H]1[C@H](O)CN1C(=O)O[C@H]1CC[C@@H](c2cc(Nc3ccc4c(c3F)CS(=O)(=O)N4C)n[nH]2)C1 (relative stereo) [Example 355]", "=", 19],
  ["CC(C)NC(=O)O[C@H]1CC[C@@H](c2cc(Nc3ccc4c(c3F)CN(CC3CNC3)S4(=O)=O)n[nH]2)C1 (relative stereo) [Example 105]", "=", 8.4],
  ["CC(C)NC(=O)O[C@H]1CC[C@@H](c2cc(Nc3ccc4c(c3)S(=O)(=O)NC4=O)n[nH]2)C1 (relative stereo) [Example 16]", "=", 18],
  ["CC[C@H](C)NC(=O)O[C@H]1CC[C@@H](c2cc(Nc3ccc4c(c3F)CS(=O)(=O)N4CCO)n[nH]2)C1 (relative stereo) [Example 273]", "=", 2.5],
  ["CCCNC(=O)O[C@H]1CC[C@@H](c2cc(Nc3cc(CO)c4c(c3F)CNS4(=O)=O)n[nH]2)C1 (relative stereo) [Example 366]", ">", 10000],
  ["CC[C@H](C)NC(=O)O[C@H]1CC[C@@H](c2cc(Nc3ccc4c(c3F)CN(C3CC3)S4(=O)=O)n[nH]2)C1 (racemic) [Example 117]", "=", 9.6],
  ["CC(C)NC(=O)N[C@H]1CC[C@@H](c2cc(Nc3ccc4c(c3)CNS4(=O)=O)n[nH]2)C1 (relative stereo) [Example 19]", "=", 305],
  ["CC[C@H](C)NC(=O)O[C@H]1CC[C@@H](c2cc(Nc3ccc4c(c3)CS(=O)(=O)N4)n[nH]2)C1 (single isomer, unassigned) [Example 323a]", "=", 6.7],
  ["CC1(NC(=O)O[C@H]2CC[C@@H](c3cc(Nc4ccc5c(c4F)CS(=O)(=O)N5C4CC4)n[nH]3)C2)COC1 (relative stereo) [Example 362]", "=", 3.8],
  ["CC(C)NC(=O)O[C@H]1CC[C@@H](c2cc(Nc3cc4c(cc3F)NS(=O)(=O)C4)n[nH]2)C1 (single isomer, unassigned) [Example 292b]", "=", 5.2],
  ["CC(C)NC(=O)O[C@H]1CC[C@@H](c2cc(Nc3ccc4c(c3F)CN(CCO)S4(=O)=O)n[nH]2)C1 (single isomer, unassigned) [Example 125a]", "=", 12],
  ["COCCN1Cc2c(ccc(Nc3cc([C@@H]4CC[C@H](OC(=O)NC(C)C)C4)[nH]n3)c2F)S1(=O)=O (relative stereo) [Example 64]", "=", 4.6]
]}
